Target: c-KIT kinase (Homo sapiens (Human), UniProt P10721)
Sequence (P10721 26-976): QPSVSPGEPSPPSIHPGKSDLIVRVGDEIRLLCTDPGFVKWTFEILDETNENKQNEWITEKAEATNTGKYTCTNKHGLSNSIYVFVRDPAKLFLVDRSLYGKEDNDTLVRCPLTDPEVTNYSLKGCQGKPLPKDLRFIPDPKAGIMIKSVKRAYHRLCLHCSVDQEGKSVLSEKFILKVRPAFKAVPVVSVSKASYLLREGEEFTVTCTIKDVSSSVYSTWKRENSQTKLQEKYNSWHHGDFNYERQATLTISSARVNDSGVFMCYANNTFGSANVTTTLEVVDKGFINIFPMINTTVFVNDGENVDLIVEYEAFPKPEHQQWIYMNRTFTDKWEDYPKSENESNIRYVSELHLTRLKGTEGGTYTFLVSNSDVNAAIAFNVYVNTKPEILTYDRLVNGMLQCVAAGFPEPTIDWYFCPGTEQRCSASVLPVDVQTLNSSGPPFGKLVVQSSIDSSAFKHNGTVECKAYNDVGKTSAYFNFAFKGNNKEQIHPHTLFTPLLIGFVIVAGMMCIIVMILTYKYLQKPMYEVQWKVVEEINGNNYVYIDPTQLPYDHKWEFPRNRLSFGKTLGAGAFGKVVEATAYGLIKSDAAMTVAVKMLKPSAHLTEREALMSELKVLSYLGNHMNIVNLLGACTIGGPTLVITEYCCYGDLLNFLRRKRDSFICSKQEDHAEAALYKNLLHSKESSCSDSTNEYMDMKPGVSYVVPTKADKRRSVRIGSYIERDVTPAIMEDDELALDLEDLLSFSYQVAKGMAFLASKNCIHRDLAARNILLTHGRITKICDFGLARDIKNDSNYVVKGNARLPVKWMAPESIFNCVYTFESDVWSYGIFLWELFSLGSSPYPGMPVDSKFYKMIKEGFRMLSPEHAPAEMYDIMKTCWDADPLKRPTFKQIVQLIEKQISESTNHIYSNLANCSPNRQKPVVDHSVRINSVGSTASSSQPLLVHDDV
Experiment: c-KIT kinase assay (radiometric)
Format: biochemical
Conditions: class symbol
RECORDED_METRIC: IC50

# IC50 of COc1cc(Nc2ccc3ncc(N4CCOCC4)nc3c2C#N)ccc1OCc1cnn(CCF)c1 = 300 to 1000 nM

# IC50 of COc1ccc(COc2ccc(Nc3ccc4ncc(N5CCOCC5)nc4c3C#N)cc2F)cc1 = 100 to 300 nM

# IC50 of COc1cc(Nc2ccc3ncc(N(C)C)nc3c2C#N)ccc1OCc1ccc(C)nc1 = < 100 nM

# IC50 of COc1cc(N(C)c2ccc3ncc(N4CCOCC4)nc3c2C#N)ccc1OCc1ccc(C2CC2)nc1 = < 100 nM

# IC50 of COc1ccc(COc2ccc(Nc3ccc4ncc(N5CCN(C(C)=O)CC5)nc4c3C#N)cc2OC)cc1 = < 100 nM

# IC50 of COc1ccc(COc2ccc(Nc3ccc4ncc(N5CCNCC5)nc4c3C#N)cc2OC)cc1 = < 100 nM

# IC50 of COc1cc(Nc2ccc3ncc(N4CCC(N(C)C)CC4)nc3c2C#N)ccc1OCc1cccc(C#N)c1 = < 100 nM

# IC50 of COc1cc(Nc2ccc3ncc(N4CCOCC4)nc3c2C#N)ccc1OCc1ccoc1 = 100 to 300 nM

# IC50 of COc1cc(Nc2ccc3ncc(N4CCOCC4)nc3c2C#N)ccc1OCc1cnn(CC2CC2)c1 = < 100 nM

###

System: THP-1 human acute monocytic leukemia cell harboring NRAS G12D mutation
Experiment: THP-1 cell proliferation assay (counter screen, CellTiter-96)
Format: cell-based
Settings: Cytotoxicity, THP-1 cells (counter screen), 72 hours
RECORDED_METRIC: IC50

Short answer on THP-1 human acute monocytic leukemia cell harboring NRAS G12D mutation for C=C(C)c1cnc2ccc(Nc3ccc(OCc4ccc(OC)cc4)c(OC)c3)cc2n1 , IC50: > 10 µM

Short answer on THP-1 human acute monocytic leukemia cell harboring NRAS G12D mutation for COc1cc(Nc2ccc3ncc(N4CCOCC4)nc3c2C#N)ccc1OCc1ccc(CN(C)C)nc1 , IC50: > 10 µM

Short answer on THP-1 human acute monocytic leukemia cell harboring NRAS G12D mutation for CNc1cnc2ccc(Nc3ccc(OCc4ccc(OC)cc4)c(OC)c3)cc2n1 , IC50: 1 to 10 µM

Short answer on THP-1 human acute monocytic leukemia cell harboring NRAS G12D mutation for COc1cc(N(C)c2ccc3ncc(N4CCOCC4)nc3c2C#N)ccc1OCc1ccc(C)nc1 , IC50: > 10 µM

Short answer on THP-1 human acute monocytic leukemia cell harboring NRAS G12D mutation for COc1ccc(COc2ccc(Nc3ccc4ncc(N5CCC(C)CC5)nc4c3C#N)cc2OC)cn1 , IC50: > 10 µM

###

Molecular target: c-KIT kinase (Homo sapiens (Human), UniProt P10721)
Assay: c-KIT kinase assay (radiometric)
Assay type: biochemical
Details: class symbol
pIC50: −log10 of the molar value.
So I've got a bunch of molecules here, and I need their pIC50 values.

# pIC50 of CCOc1ccc(COc2ccc(Nc3ccc4ncc(N5CCOCC5)nc4c3C#N)cc2OC)cc1 = > 7.00

# pIC50 of COc1ccc(COc2ccc(Nc3ccc4ncc(N(C)C)nc4c3C#N)cc2OC)cn1 = > 7.00

# pIC50 of COc1cnc2ccc(Nc3ccc(NCc4ccc(C(F)(F)F)cc4)nc3)c(C#N)c2n1 = 6.00 to 6.52

# pIC50 of COc1ccc(COc2ccc(Nc3ccc4ncc(N5CCOCC5)nc4c3C#N)cc2OC)cc1 = > 7.00

# pIC50 of COc1cc(Nc2ccc3ncc(N4CCOCC4)nc3c2C#N)ccc1OCc1cc(C)on1 = > 7.00

# pIC50 of C#CCOc1ccc(Nc2ccc3ncc(N4CCOCC4)nc3c2C#N)cc1OC = 6.52 to 7.00

# pIC50 of COc1ccc(COc2ccc(Nc3ccc4ncc(N5CCC5)nc4c3C#N)cc2OC)cc1 = > 7.00

# pIC50 of COc1cc(Nc2ccc3ncc(N4CCOCC4)nc3c2C#N)ccc1OCc1ccc(C2CC2)nc1 = > 7.00

# pIC50 of CCn1cc(COc2ccc(Nc3ccc4ncc(N5CCOCC5)nc4c3C#N)cc2OC)cn1 = 6.52 to 7.00

# pIC50 of COc1ccc(COc2ccc(Oc3ccc4ncc(N5CCOCC5)nc4c3C#N)cc2OC)cc1 = 6.52 to 7.00

# pIC50 of COc1ccc(COc2ccc(Nc3ccc4ncc(N5CCN(C)CC5)nc4c3C#N)cc2OC)cn1 = 6.52 to 7.00

# pIC50 of COc1cc(Nc2ccc3ncc(C4CCOCC4)nc3c2C#N)ccc1OCc1ccc(C)nc1 = 6.00 to 6.52

# pIC50 of COc1cc(Nc2ccc3ncc(N4CCOCC4)nc3c2C#N)ccc1OCc1ccc(CF)nc1 = 6.52 to 7.00

# pIC50 of COc1cc(Nc2ccc3ncc(N4CCOCC4)nc3c2C#N)ccc1OCc1cnn(C2CC2)c1 = > 7.00

# pIC50 of COc1cc(Nc2ccc3ncc(N4CCOCC4)nc3c2C#N)ccc1OCc1cncn1C = 6.00 to 6.52

# pIC50 of COc1ccc(COc2ccc(Nc3ccc4ncc(N5CCOCC5)nc4c3C#N)cc2OC)cn1 = 6.52 to 7.00

# pIC50 of COCCN1CCN(c2cnc3ccc(Nc4ccc(OCc5ccc(C)nc5)c(OC)c4)c(C#N)c3n2)CC1 = 6.52 to 7.00

# pIC50 of COc1ccc(COc2ccc(Nc3ccc4ncc(N5CCC(N(C)C)CC5)nc4c3C#N)cc2OC)cc1F = > 7.00

# pIC50 of COc1cc(Nc2ccc3ncc(N4CCOCC4)nc3c2C#N)ccc1OCc1ccc(C(F)F)nc1 = 6.52 to 7.00

# pIC50 of COc1cc(Nc2ccc3ncc(N4CCOCC4)nc3c2C#N)ccc1OCc1ccc(C)nc1 = > 7.00

# pIC50 of COc1cc(Nc2ccc3ncc(N4CCOCC4)nc3c2C#N)ccc1OCc1ccc2c(c1)CCO2 = > 7.00
